Molecular target: T1, CD22 on cynomolgus monkey peripheral blood B cells (cynomolgus monkey (Macaca fascicularis))
T1 construct: whole, on cells; also called cynomolgus monkey B cells
Test: FACS, cynomolgus PBMC, CD20+ B cells, antibody 10 nM
I'd appreciate it if you marked entries yes (1) when Proportion of chimeric antibody positive cells to B cells (%) is lower than 90% and no (0) when it is not.

A selection of reference data follows.
| binder | class name |
| --- | --- |
| F1.250.16 (antibody, human IgG1, kappa, V domains shown, human-murine chimeric IgG1 kappa; VL name legible) VH: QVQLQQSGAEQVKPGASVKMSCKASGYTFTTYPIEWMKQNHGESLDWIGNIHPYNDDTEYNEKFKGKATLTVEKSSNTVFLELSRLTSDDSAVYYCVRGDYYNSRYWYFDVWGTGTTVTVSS VL: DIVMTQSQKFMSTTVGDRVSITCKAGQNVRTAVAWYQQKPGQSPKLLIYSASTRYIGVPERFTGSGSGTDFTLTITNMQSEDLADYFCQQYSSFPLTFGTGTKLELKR | no (0) |
| F1.231.15 (antibody, IgG1, V domains shown, human-murine chimeric IgG1 kappa) VH: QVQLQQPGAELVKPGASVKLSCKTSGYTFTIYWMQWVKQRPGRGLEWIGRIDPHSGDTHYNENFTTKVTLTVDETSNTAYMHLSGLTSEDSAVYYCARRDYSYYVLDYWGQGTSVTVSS VL: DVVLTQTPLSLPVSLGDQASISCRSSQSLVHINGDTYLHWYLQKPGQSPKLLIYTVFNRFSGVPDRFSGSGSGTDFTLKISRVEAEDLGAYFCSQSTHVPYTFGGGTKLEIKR | yes (1) |

Next binder, please.
Q) Answer whether the binder F2.205.9 (antibody, human IgG1, lambda, V domains shown, human-murine chimeric IgG1 lambda; VL name legible) VH: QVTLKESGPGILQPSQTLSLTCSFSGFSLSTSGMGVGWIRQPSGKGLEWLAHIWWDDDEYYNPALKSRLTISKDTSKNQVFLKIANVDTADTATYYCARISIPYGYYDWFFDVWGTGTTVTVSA VL: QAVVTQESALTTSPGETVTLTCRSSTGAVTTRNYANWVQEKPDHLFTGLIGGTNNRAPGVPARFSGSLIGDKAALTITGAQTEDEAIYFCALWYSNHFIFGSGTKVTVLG has Proportion of chimeric antibody positive cells to B cells (%) strictly less than 90%
A) yes (1)
